assaySystem: murine DLL4 (murine) (UniProt Q9JI71)
assayComment: Biacore (SPR), DVD-Ig and muDLL4
endpointLabel: koff (s⁻¹)
API: value field is a number in s⁻¹; no unit string.

Q. Fill in the blank: the reported koff of h1A11.1-A10-S3-SS-Anti-VEGF DVD-Ig (bispecific antibody, part only; not given: anti-VEGF domains, h1A11.1 VL, constant regions, part only) heavy, part: EVQLVESGGGLVQPGGSLRLSCAASGFTFRHFPMAWVRQAPGKGLEWVASISSSDGTSNYRDSVKGRFTISRDNAKSSLYLQMNSLRAEDTAVYYCARGYYNSPFAYWGQGTLVTVSSASTKGP light, part: TVAAP is ____.
A. 0.000133

Q. Fill in the blank: the reported koff of h1A11.1-A04-S3-SS-Anti-VEGF DVD-Ig (bispecific antibody, part only; not given: anti-VEGF domains, h1A11.1 VL, constant regions, part only) heavy, part: EVQLVESGGGLVQPGGSLRLSCAASGFTFRHFPMAWVRQAPGKGLEWVATISSSDGATYYRDSVKGRFTISRDNAKSSLYLQMNSLRAEDTAVYYCARGYYNSPFAYWGQGTLVTVSSASTKGP light, part: TVAAP is ____.
A. 8.12e-05

Q. Fill in the blank: the reported koff of h1A11.1-H3-S2-SS-Anti-VEGF DVD-Ig (bispecific antibody, part only; not given: anti-VEGF domains, h1A11.1 VL, constant regions, part only) heavy, part: EVQLVESGGGLVQPGGSLRLSCAASGFTFRNFPMAWVRQAPGKGLEWVASISSSDGTTNYRDSVKGRFTISRDNAKSSLYLQMNSLRAEDTAVYYCARGYYNSPFAYWGQGTLVTVSSASTKGP light, part: TVAAP is ____.
A. 0.000294

Q. Fill in the blank: the reported koff of h1A11.1-G7-S2-SS-Anti-VEGF DVD-Ig (bispecific antibody, part only; not given: anti-VEGF domains, h1A11.1 VL, constant regions, part only) heavy, part: EVQLVESGGGLVQPGGSLRLSCAASGFTFNHFPMAWVRQAPGKGLEWVATISSSDWTPYYRDSVKGRFTISRDNAKNSLYLQMNSLRAEDTAVYYCARGYYNSPFAYWGQGTLVTVSSASTKGP light, part: TVAAP is ____.
A. 0.000266

Ref: patent US9915665
